# systemUnderTest: Aurora kinase C (Homo sapiens) (UniProt Q9UQB9)
# Sequence (whole entry): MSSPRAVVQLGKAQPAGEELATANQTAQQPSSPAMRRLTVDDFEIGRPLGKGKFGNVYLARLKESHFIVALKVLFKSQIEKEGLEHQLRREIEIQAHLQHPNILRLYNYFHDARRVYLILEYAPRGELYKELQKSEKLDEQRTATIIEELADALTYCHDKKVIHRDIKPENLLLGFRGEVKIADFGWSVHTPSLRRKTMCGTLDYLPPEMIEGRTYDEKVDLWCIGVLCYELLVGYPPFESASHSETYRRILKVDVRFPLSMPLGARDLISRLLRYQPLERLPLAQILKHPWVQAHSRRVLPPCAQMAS
# assayContext: at 1 µM
Short version: residual activity at least 80% is Y, less is N.

COc1ccc(C(=O)Nc2sc3c(c2C(N)=O)CCCC3)cc1OC | Y
Cc1cncc2cccc(S(=O)(=O)N3CCCN(C(=O)CN)C[C@H]3C)c12 | N
CCN(CC)C(=O)c1ccc(Nc2nc(OCC3CCCCC3)c3nc[nH]c3n2)cc1 | N
COc1cc2ncnc(Nc3ccc(NC(=O)c4ccccc4)cc3)c2cc1OC | N

Here is the next item to consider.
*Q* Can Oc1n[nH]c2nnc(-c3c(-c4ccccc4)nn4ccccc34)cc12 be said to have residual activity at or above 80%?
*A* Y

----------
# systemUnderTest: Platelet-derived growth factor receptor alpha (Homo sapiens)
# assayContext: at 10 µM
resultType: residual activity (%)
Hi! Could you send only the number? It should be in %, unit omitted.

Guide cases for residual activity, answers given:
CCC(=O)Nc1ccc2ncnc(Nc3cccc(Br)c3)c2c1 | 91
COc1cccc(-c2cc(=O)c3ccccc3o2)c1N | 110
COc1ccc(CNc2nc(N(CCO)CCO)nc3c2ncn3C(C)C)cc1 | 102
N#Cc1cnc2cnc(NCc3cccnc3)cc2c1Nc1ccc(F)c(Cl)c1 | 54

*Q* Item under review: O=c1c2ccccc2[nH]c(=S)n1CCN1CCC(=C(c2ccc(F)cc2)c2ccc(F)cc2)CC1 . Reported residual activity?
*A* 97

*Q* Can you share its residual activity? I mean this compound: Oc1n[nH]c2nnc(-c3c(-c4ccccc4)nn4ccccc34)cc12
*A* 110

----------
# systemUnderTest: Fibroblast growth factor receptor 2 (Homo sapiens) (UniProt P21802)
# Sequence (P21802 22-821 limits assumed): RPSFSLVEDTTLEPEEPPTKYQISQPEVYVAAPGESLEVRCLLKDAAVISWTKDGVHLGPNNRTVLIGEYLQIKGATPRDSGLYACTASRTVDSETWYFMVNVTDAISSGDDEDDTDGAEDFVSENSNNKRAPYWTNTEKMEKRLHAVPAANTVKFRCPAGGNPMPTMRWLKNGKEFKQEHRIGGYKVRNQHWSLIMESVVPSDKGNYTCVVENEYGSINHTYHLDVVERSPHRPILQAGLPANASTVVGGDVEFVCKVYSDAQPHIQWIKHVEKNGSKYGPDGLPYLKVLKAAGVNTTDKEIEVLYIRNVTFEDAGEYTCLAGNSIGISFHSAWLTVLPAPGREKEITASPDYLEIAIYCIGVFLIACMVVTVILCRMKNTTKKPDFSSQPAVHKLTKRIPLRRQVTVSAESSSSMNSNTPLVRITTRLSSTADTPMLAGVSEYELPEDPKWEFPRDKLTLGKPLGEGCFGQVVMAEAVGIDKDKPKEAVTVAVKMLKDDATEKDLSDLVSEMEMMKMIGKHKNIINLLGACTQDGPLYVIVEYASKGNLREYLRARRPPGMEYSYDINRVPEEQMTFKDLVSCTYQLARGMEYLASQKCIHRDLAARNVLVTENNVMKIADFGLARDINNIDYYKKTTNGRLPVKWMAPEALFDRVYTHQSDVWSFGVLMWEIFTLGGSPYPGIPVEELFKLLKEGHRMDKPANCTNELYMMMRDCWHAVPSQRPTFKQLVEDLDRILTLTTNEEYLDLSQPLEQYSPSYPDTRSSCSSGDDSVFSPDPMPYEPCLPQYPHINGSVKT
# assayContext: at 1 µM
resultType: residual activity (%)
Report the value in % with no unit label.

Nc1n[nH]c2nnc(-c3c(-c4ccccc4)nn4ccccc34)cc12 | 98
CN(C)CCCn1cc(C2=C(c3c[nH]c4ccccc34)C(=O)NC2=O)c2ccccc21 | 88
C[C@@H](N)[C@H]1CC[C@H](C(=O)Nc2ccncc2)CC1 | 102

*Q* Give the measured residual activity of Cc1cc(Nc2nc(-c3ccccc3)nc3ccccc23)n[nH]1 .
*A* 24

*Q* Quick check: residual activity of O=C(Nc1cccc(Nc2cc(Nc3cccc(C(F)(F)F)c3)ncn2)c1)C1CC1 ?
*A* 94

*Q* Query (compound): O=C1Nc2cc(Br)ccc2/C1=C1/Nc2ccccc2/C1=N\O ; field requested: residual activity
*A* 16

*Q* Reported residual activity, compound Cc1ccc(S(=O)(=O)/C=C/C#N)cc1 : ____
*A* 108

*Q* Record request: residual activity value, item COc1ccc(CNc2nc(N(CCO)CCO)nc3c2ncn3C(C)C)cc1
*A* 101

*Q* Quick one: residual activity for CC(C)n1cnc2c(NCc3ccccc3)nc(NCCCO)nc21 ?
*A* 111

*Q* What residual activity value was documented for this compound, CC(=O)O/N=C1\C(=C2\C(=O)Nc3cc(Br)ccc32)Nc2ccccc21 ?
*A* 73

*Q* Which residual activity reading was recorded for the compound Oc1c2ccccc2c2c3c(cccc13)N=N2 ?
*A* 52

----------
# systemUnderTest: Dual specificity protein kinase CLK2 (Homo sapiens) (UniProt P49760)
# Sequence (P49760 whole entry, looked up): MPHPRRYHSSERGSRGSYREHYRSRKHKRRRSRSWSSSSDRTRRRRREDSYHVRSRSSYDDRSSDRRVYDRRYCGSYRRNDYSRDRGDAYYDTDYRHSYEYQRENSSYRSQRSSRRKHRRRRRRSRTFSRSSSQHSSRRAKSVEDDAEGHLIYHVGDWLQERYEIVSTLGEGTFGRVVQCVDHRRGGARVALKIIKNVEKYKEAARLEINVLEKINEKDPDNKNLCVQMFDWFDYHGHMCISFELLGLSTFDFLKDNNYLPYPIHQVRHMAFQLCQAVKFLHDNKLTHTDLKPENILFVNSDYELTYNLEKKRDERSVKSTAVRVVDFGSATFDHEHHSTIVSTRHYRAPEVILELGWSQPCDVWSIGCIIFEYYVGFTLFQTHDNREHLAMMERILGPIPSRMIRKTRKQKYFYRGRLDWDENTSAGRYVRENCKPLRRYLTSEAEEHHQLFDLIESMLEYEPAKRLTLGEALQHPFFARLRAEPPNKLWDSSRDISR
# assayContext: at 10 µM
resultType: residual activity (%)
Form entry: value (%) — number only.

Cn1nc2c3c(cccc31)C(=O)c1ccccc1-2 | 83

Below: the item to evaluate.
*Q* Need residual activity, item CCC(=O)Nc1ccc2ncnc(Nc3cccc(Br)c3)c2c1
*A* 105

----------
The compounds listed here are annotated with their residual activity.
# systemUnderTest: Protein kinase C eta type (Homo sapiens)
# assayContext: at 10 µM

Sample records with residual activity:
O=C1NC(=O)/C(=C/c2ccc3c(c2)OC(F)(F)O3)S1 | 89%
NC(=O)c1ccc2[nH]c(-c3ccc(Oc4ccc(Cl)cc4)cc3)nc2c1 | 80%
CNc1cc2c(Nc3cccc(Br)c3)ncnc2cn1 | 90%
COc1cc2ncnc(Nc3ccc(NC(=O)c4ccccc4)cc3)c2cc1OC | 95%
Cc1ccc(NC2=CC(=O)c3sc(C)nc3C2=O)cc1 | 86%
COc1ccc(CNc2nc(N(CCO)CCO)nc3c2ncn3C(C)C)cc1 | 83%

*Q* # value lookup — system Protein kinase C eta type (Homo sapiens), readout residual activity, item CC[n+]1c(/C=C/N(C)c2ccccc2)n(-c2ccccc2)c2ccc(-c3nc4ccccc4s3)cc21
*A* 88%

*Q* Query residual activity on Protein kinase C eta type (Homo sapiens) for COc1cc2ncnc(N3CCN(C(=O)Nc4ccc(Oc5ccccc5)cc4)CC3)c2cc1OC
*A* 74%

----------
Listed here are compounds together with their documented residual activity.
# systemUnderTest: Rho-associated protein kinase 1 (Homo sapiens) (UniProt Q13464)
# Sequence (Q13464 2-1354 limits assumed): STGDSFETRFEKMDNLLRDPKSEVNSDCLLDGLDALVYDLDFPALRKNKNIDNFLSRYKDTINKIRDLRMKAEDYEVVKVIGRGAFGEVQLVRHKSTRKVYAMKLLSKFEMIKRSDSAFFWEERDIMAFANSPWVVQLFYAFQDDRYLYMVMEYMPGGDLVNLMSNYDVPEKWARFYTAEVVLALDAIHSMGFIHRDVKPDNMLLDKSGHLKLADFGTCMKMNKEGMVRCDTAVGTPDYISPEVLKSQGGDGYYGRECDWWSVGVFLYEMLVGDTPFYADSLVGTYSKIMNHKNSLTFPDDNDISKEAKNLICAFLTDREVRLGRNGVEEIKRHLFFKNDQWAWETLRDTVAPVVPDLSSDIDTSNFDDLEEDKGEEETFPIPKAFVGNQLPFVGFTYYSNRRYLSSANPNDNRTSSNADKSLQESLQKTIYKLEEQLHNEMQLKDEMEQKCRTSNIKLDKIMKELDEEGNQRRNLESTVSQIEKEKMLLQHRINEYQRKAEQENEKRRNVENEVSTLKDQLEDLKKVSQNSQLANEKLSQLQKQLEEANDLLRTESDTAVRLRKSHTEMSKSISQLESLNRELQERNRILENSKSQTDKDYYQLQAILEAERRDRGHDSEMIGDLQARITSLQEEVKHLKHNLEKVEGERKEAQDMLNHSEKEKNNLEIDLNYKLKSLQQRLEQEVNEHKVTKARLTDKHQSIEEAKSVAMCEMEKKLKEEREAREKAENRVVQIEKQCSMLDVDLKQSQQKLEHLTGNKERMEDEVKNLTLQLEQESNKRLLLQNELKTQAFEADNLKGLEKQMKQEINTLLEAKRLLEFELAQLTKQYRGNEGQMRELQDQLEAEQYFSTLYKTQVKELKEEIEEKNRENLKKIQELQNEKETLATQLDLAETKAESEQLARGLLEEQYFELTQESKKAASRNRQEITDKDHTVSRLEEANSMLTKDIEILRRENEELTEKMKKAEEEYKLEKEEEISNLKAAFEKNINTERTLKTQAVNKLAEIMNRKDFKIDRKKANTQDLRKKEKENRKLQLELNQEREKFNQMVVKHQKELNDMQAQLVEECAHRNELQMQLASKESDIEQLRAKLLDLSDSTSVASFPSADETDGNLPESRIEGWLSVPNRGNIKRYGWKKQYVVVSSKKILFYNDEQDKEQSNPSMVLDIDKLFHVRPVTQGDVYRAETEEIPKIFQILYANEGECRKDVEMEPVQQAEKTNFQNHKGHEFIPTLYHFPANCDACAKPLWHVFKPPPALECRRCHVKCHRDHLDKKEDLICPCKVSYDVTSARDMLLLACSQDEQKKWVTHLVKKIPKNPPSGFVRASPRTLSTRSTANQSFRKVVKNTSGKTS
# assayContext: at 10 µM
Just the number please, in %, no unit attached.

Cc1nc(-c2ccccc2)c(-c2ccncc2)o1 | 108
CO[C@@H]1[C@H](N(C)C(=O)c2ccccc2)C[C@H]2O[C@]1(C)n1c3ccccc3c3c4c(c5c6ccccc6n2c5c31)C(=O)NC4 | 115
O=C1Nc2ccccc2/C1=C1/Nc2ccccc2/C1=N\OCCC(O)CO (stereo not given) | 98
CC(C)n1cnc2/c(=N/c3cccc(Cl)c3)nc(NCCO)[nH]c21 | 82
CCOc1cc2ncnc(Nc3cccc(Br)c3)c2cc1OCC | 95
O=c1c2ccccc2[nH]c(=S)n1CCN1CCC(=C(c2ccc(F)cc2)c2ccc(F)cc2)CC1 | 127
Cc1cc(Nc2nc(-c3ccccc3)nc3ccccc23)n[nH]1 | 94
O=C1NC(=O)c2cc(Nc3ccc(F)cc3)c(Nc3ccc(F)cc3)cc21 | 123

*Q* Lab request: please report residual activity under test system Rho-associated protein kinase 1 (Homo sapiens) (UniProt Q13464) for O=c1cc(-c2cccc3c2Sc2ccccc2S3)oc(N2CCOCC2)c1
*A* 96

*Q* # query: residual activity | item NC(=O)c1ccc2[nH]c(-c3ccc(Oc4ccc(Cl)cc4)cc3)nc2c1 | system: Rho-associated protein kinase 1 (Homo sapiens) (UniProt Q13464)
*A* 118

----------
# systemUnderTest: Protein kinase C theta type (Homo sapiens)
# assayContext: at 10 µM
# label 1 = residual activity below 80% (exclusive); label 0 = residual activity at/above 80%

c1ccc(-c2n[nH]cc2-c2ccnc3ccccc23)nc1 | label 0
CC(C)n1cnc2c(NCc3ccccc3)nc(NCCCO)nc21 | label 0
CCC(=O)Nc1ccc2ncnc(Nc3cccc(Br)c3)c2c1 | label 0
Cc1ccc(S(=O)(=O)/C=C/C#N)cc1 | label 1
CO[C@@H]1[C@H](N(C)C(=O)c2ccccc2)C[C@H]2O[C@]1(C)n1c3ccccc3c3c4c(c5c6ccccc6n2c5c31)C(=O)NC4 | label 1
c1ccc2c(-c3ccncc3)c[nH]c2c1 | label 1
Cc1nc2cc3nc(-c4cccs4)cnc3cc2n1C | label 0
Oc1ccc(Nc2nc(-c3ccc(Cl)cc3)cs2)cc1 | label 0

*Q* Threshold test, residual activity < 80%: O=c1c2ccccc2[nH]c(=S)n1CCN1CCC(=C(c2ccc(F)cc2)c2ccc(F)cc2)CC1
*A* label 0

*Q* Hi there! Is residual activity for NC(=O)c1ccc2[nH]c(-c3ccc(Oc4ccc(Cl)cc4)cc3)nc2c1 below 80%, do you know?
*A* label 0

----------
# systemUnderTest: Serine/threonine-protein kinase D1 (Homo sapiens)
# Sequence (whole entry): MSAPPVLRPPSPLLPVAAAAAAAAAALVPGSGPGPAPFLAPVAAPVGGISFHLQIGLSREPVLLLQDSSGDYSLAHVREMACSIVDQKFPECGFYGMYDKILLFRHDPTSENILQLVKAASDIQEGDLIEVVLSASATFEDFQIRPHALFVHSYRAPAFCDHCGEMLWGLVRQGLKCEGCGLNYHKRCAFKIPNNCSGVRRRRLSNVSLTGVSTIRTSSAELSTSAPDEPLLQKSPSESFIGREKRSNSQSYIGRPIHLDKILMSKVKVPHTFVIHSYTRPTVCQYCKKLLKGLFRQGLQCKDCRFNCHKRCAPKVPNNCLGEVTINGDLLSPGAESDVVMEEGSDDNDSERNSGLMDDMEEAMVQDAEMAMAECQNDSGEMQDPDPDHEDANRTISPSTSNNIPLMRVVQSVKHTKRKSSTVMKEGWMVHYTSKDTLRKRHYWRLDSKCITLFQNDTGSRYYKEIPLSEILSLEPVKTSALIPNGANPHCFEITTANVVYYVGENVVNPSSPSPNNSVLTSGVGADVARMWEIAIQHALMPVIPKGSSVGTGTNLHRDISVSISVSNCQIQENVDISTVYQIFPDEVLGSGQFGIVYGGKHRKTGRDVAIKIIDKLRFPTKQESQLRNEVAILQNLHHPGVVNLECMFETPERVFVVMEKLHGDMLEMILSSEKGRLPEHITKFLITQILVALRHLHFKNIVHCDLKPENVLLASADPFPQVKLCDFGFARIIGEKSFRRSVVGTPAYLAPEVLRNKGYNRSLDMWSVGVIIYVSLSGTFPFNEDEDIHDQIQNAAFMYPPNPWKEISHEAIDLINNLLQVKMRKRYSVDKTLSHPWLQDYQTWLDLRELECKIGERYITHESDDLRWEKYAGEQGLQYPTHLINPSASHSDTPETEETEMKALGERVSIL
# assayContext: at 1 µM
hey, just use condition met if measured residual activity is less than 80%, otherwise condition not met

Cc1nc2cc3nc(-c4cccs4)cnc3cc2n1C | condition not met

*Q* State whether 80% exceeds residual activity recorded for O=C(Nc1cccc(Nc2cc(Nc3cccc(C(F)(F)F)c3)ncn2)c1)C1CC1 .
*A* condition not met

*Q* Find out if reported residual activity for Cc1nc(-c2ccccc2)c(-c2ccncc2)o1 is less than 80%
*A* condition not met

*Q* Dear reviewer, please state whether O=C1c2ccccc2-[n+]2ccc3c([nH]c4ccccc43)c21 has residual activity strictly beneath 80%.
*A* condition not met

*Q* Hello, is residual activity of the following molecule strictly smaller than 80%? O=C1Nc2ccccc2/C1=C1/Nc2ccccc2/C1=N\OCCC(O)CO (centres undefined)
*A* condition met

*Q* Dear colleague, could you confirm whether residual activity of O=Nc1c(-c2c(O)[nH]c3ccccc23)[nH]c2ccccc12 falls below 80%? Thanks.
*A* condition not met

*Q* Does the reported residual activity of Nc1nc(Nc2ccc(S(N)(=O)=O)cc2)nn1C(=S)Nc1c(F)cccc1F stay below 80%?
*A* condition met

*Q* Say whether its residual activity is strictly beneath 80%. Entry: c1ccc(-c2n[nH]cc2-c2ccnc3ccccc23)nc1
*A* condition met

*Q* Identify whether the molecule O=C1NC(=O)/C(=C/c2ccc3c(c2)OC(F)(F)O3)S1 records residual activity below 80%.
*A* condition not met

*Q* Bench note: check whether COc1cc2ncnc(Nc3ccc(O)c(Br)c3)c2cc1OC shows residual activity below 80%
*A* condition met

*Q* Please let me know if N#CC(C#N)=C(N)/C(C#N)=C/c1ccc(O)cc1 shows residual activity below 80%.
*A* condition not met

*Q* Hello, I'm reviewing records and need to know if residual activity of O=C1NC(=O)c2cc(Nc3ccc(F)cc3)c(Nc3ccc(F)cc3)cc21 is below 80%. Could you check?
*A* condition not met

*Q* # check: residual activity < 80% for CC#CC(=O)Nc1cc2c(Nc3ccc(F)c(Cl)c3)ncnc2cn1
*A* condition not met

*Q* I'd appreciate it if you could check whether Cn1cnc2cc3c(Nc4cccc(Br)c4)ncnc3cc21 has residual activity smaller than 80%.
*A* condition not met

*Q* A record lists CCC(=O)Nc1ccc2ncnc(Nc3cccc(Br)c3)c2c1 . Is its residual activity below 80%?
*A* condition not met
